Here, each record is paired with measured MIC data.
Test system: Staphylococcus aureus
Experiment: Antibacterial activity against Staphylococcus aureus ATCC 29213 by broth microdilution assay
Format: functional

{"COMPOUND": "NC(=O)c1c(F)ccc(OCc2nc3cc(Cl)cnc3s2)c1F", "MIC [µM]": 1.6}
{"COMPOUND": "CCCCCCCCCOc1ccc(F)c(C(N)=O)c1F", "MIC [µM]": 3.1}
{"COMPOUND": "CCCCCCCCCN(C)c1ccc(F)c(C(N)=O)c1F", "MIC [µM]": 3.1}
{"COMPOUND": "CCCCCCCC(C)Nc1ccc(F)c(C(N)=O)c1F (stereo unspecified)", "MIC [µM]": 13}
{"COMPOUND": "CCCCCCCCCNc1ccc(F)c(/C(N)=N/O)c1F", "MIC [µM]": 50}
{"COMPOUND": "CCCCCCCCCNc1ccc(F)c(-c2nnn[nH]2)c1F", "MIC [µM]": 50}
{"COMPOUND": "NC(=O)c1c(F)ccc(N(Cc2ccc(F)cc2)Cc2ccc(F)cc2)c1F", "MIC [µM]": 50}
{"COMPOUND": "CCCCCC/C=C\\CNc1ccc(F)c(C(N)=O)c1F", "MIC [µM]": 25}
{"COMPOUND": "NC(=O)c1c(F)ccc(N(Cc2ccc(Cl)cc2)Cc2ccc(Cl)cc2)c1F", "MIC [µM]": 13}
{"COMPOUND": "CCCCCCCCNc1ccc(F)c(C(N)=O)c1F", "MIC [µM]": 50}
{"COMPOUND": "CCCCCCCCN(C)c1ccc(F)c(C(N)=O)c1F", "MIC [µM]": 13}
{"COMPOUND": "CCCCCOc1cccc(CNc2ccc(F)c(C(N)=O)c2F)c1", "MIC [µM]": 50}
{"COMPOUND": "CCCCCCCCCN(C)c1ccc(F)c(C(=N)N)c1F", "MIC [µM]": 50}
{"COMPOUND": "CCCCOc1cccc(CNc2ccc(F)c(C(N)=O)c2F)c1", "MIC [µM]": 50}
{"COMPOUND": "CCCCCCCCCN(C)c1ccc(F)c(/C(N)=N/O)c1F", "MIC [µM]": 13}
{"COMPOUND": "CCCCCCCCCNc1ccc(F)c(C(N)=O)c1F", "MIC [µM]": 3.1}
